Collected solubility kinetic values appear next to each entry.
conditions: buffer; pH 7.4; 200.0 µM
Numbers only; they are read as µg/mL.

These solved cases illustrate the format of a correct answer.
{"molecule": "N/C(=N\\OC(=O)CSc1ccccc1)c1ccncc1", "solubility kinetic / µg/mL": 37.6}
{"molecule": "COc1cccc(N2C(=O)/C(=C\\c3cccs3)NC2=S)c1", "solubility kinetic / µg/mL": 4.1}
{"molecule": "C=CCn1c(SCC(=O)Nc2cccc(S(N)(=O)=O)c2)nc2sc(C)c(C)c2c1=O", "solubility kinetic / µg/mL": 3}
{"molecule": "CCSc1c([N+](=O)[O-])c(=O)n(-c2ccccc2)c2ccccc12", "solubility kinetic / µg/mL": 1.3}
{"molecule": "Cc1ccccc1NC(=O)c1ccc(OCc2c(C)noc2C)cc1", "solubility kinetic / µg/mL": 42.3}
{"molecule": "CN1CCN(C(=S)c2cn(Cc3cccc(F)c3)c3ccccc23)CC1", "solubility kinetic / µg/mL": 28}
{"molecule": "CSc1nc2nc3c(cc2c(=O)n1-c1ccccc1C)CCCC3", "solubility kinetic / µg/mL": 37.9}
{"molecule": "Cc1ccc(OCCn2ccnc2)c([N+](=O)[O-])c1", "solubility kinetic / µg/mL": 26.8}

input: Recorded solubility kinetic of Cc1ccc(Oc2ncnc(N)c2[N+](=O)[O-])cc1 , please.
output: 12.3

input: // query: O=S(=O)(NC1C2CC3CC(C2)CC1C3)c1ccccc1 (centres undefined)
output: 23.4

input: Now the same for N#Cc1ccc(N2CCN(C(=O)c3cccs3)CC2)c(F)c1
output: 40.1

input: // repeat for CCC(Cc1ccccc1)NC(=O)C1CCCCC1 (centres undefined) and report
output: 11.6

input: Field entry: Cn1c(N)c(C(=O)COC(=O)COc2cccc(Br)c2)c(=O)n(C)c1=O
output: 11.3

----------
Readings of solubility kinetic for the listed compounds
conditions: buffer; pH 7.4; 200.0 µM
Numeric only. Scale: µg/mL

{"compound": "COc1ccccc1CNC(=O)CN1C(=O)NC(c2ccccc2)(c2ccccc2)C1=O", "unitAbbreviation": "µg/mL", "number": 3.1}
{"compound": "Clc1ccccc1Nc1nc(-c2ccncc2)nc2ccccc12", "unitAbbreviation": "µg/mL", "number": 0.8}
{"compound": "CCOC(=O)c1ccc(NC(=O)NCc2ccccn2)cc1", "unitAbbreviation": "µg/mL", "number": 42.2}
{"compound": "CC(=O)c1ccc(S(=O)(=O)N2CCCc3ccccc32)cc1", "unitAbbreviation": "µg/mL", "number": 24.5}

input: // query solubility kinetic value for entry Cc1c(C)n(CCCN(C)C)c2ncnc(NC3CCCCC3)c12
output: 46.9

input: Note, next up: O=[N+]([O-])c1ccccc1CN1CC=C(c2ccc(F)cc2)CC1
output: 2.3

input: How about this compound: CCCNC(=O)c1ccc2c(c1)ncn2-c1cc(C)cc(C)c1
output: 38.4

----------
conditions: buffer; pH 7.4; 200.0 µM
Recorded solubility kinetic for the following molecules

Some entries whose results are on file:
{"molecule": "Cc1ccc(C(=O)NCCOc2ccc(Cl)cc2)cc1", "readoutType": "solubility kinetic", "result": "3.4 µg/mL"}
{"molecule": "COC(=O)[C@H](CC(C)C)NC(=O)Nc1ccc(F)cc1", "readoutType": "solubility kinetic", "result": "> 42.3 µg/mL"}
{"molecule": "CSc1nc(-c2ccccc2)c(C#N)c(=O)[nH]1", "readoutType": "solubility kinetic", "result": "> 36.5 µg/mL"}

input: Which solubility kinetic is listed for CC(OC(=O)c1cc(S(=O)(=O)N2CCOCC2)ccc1F)C(=O)NCC1CCCCC1 (stereo unspecified) ?
output: > 68.5 µg/mL

input: COc1ccc2oc(=N)c(C(=O)Nc3ccc(Cl)cc3)cc2c1 , same question.
output: < 0.4 µg/mL

input: CC(NC(=O)c1ccc(Br)o1)C1CCCO1 (stereo unspecified) ?
output: > 43.2 µg/mL

----------
Each entry below carries its recorded solubility kinetic.
conditions: buffer; pH 7.4; 200.0 µM
Give just the number in µg/mL; leave the unit off.

Worked cases, solubility kinetic given:
{"compound": "Cc1cc(C)c(NC(=O)CN2C(=O)NC3(CCc4ccccc43)C2=O)c(Cl)c1 (stereo unspecified)", "unitAbbreviation": "µg/mL", "solubility kinetic": 33.1}
{"compound": "Cc1ccc(S(=O)(=O)N2CCOCC2)cc1NC(=O)c1cc2ccccc2oc1=O", "unitAbbreviation": "µg/mL", "solubility kinetic": 1.1}
{"compound": "Cc1ccc2nsnc2c1NC(=O)Cc1ccc(Cl)cc1", "unitAbbreviation": "µg/mL", "solubility kinetic": 0.7}

input: Quick one: solubility kinetic of O=C(c1cc(N2CCOCC2)c(F)cc1[N+](=O)[O-])N1CCOCC1 ?
output: 48

input: Next compound: CCc1ccc(S(=O)(=O)Nc2ccc(N3CCN(C)CC3)cc2)cc1
output: 50.8

----------
conditions: buffer; pH 7.4; 200.0 µM
readoutType: solubility kinetic (µg/mL)
Enter your answer as a number in µg/mL; do not include the unit.

# example entries with known answers
{"compound": "O=C(COc1ccc(Br)cc1)N1CCc2ccccc2C1", "unitAbbreviation": "µg/mL", "number": 20.8}
{"compound": "CCN(C(=O)C1=COCCO1)c1nc2c(C)cccc2s1", "unitAbbreviation": "µg/mL", "number": 7.5}
{"compound": "CC1CC(C)CN(CC(=O)c2c[nH]c3ccccc23)C1 (stereo not given)", "unitAbbreviation": "µg/mL", "number": 37.8}
{"compound": "O=C(NC(=S)NC1CCS(=O)(=O)C1)c1ccccc1F (stereo not given)", "unitAbbreviation": "µg/mL", "number": 44.9}
{"compound": "COc1ccccc1NC(=S)NC(=O)/C=C/c1cccs1", "unitAbbreviation": "µg/mL", "number": 0.4}
{"compound": "CCCCCCN1C=CC=C/C1=C\\C=C(C#N)C#N", "unitAbbreviation": "µg/mL", "number": 3.9}
{"compound": "CC(C)(C)c1ccccc1NC(=O)c1cc(-c2ccncc2)nc2ccccc12", "unitAbbreviation": "µg/mL", "number": 10.8}
{"compound": "Cc1cccc(C(=O)N[C@H](C(=O)Nc2ccc(C)c(S(=O)(=O)N3CCOCC3)c2)C(C)C)c1", "unitAbbreviation": "µg/mL", "number": 5.4}

input: Entry O=C(NCc1ccccc1)c1ccc(F)c(F)c1 has what solubility kinetic?
output: 35.5

input: Another compound: O=S(=O)(c1cccs1)N1CN(C2CCCC2)c2nc3ccccc3nc21
output: 8.1

input: Same for CNC(=S)NC12CC3CC(CC(C3)C1)C2
output: 3.8

input: Would you kindly repeat that for Cc1cc(NC(=S)Nc2cccnc2)ccc1Br ?
output: 40.7

input: What about this compound? CSc1ccccc1NC(=O)CN1CCCCC1
output: 35.8

----------
conditions: buffer; pH 7.4; 200.0 µM
Recorded measurements of solubility kinetic, one per entry

Reference set, count: 3
{"molecule": "Cl.Clc1cccc(CN2C3=NCCCN3c3ccccc32)c1", "solubility kinetic": "> 50.1 µg/mL"}
{"molecule": "CC(=O)NN1C(=O)c2ccccc2NC1c1ccc([N+](=O)[O-])o1 (configuration not stated)", "solubility kinetic": "> 47.4 µg/mL"}
{"molecule": "O=C(NN=Cc1ccc(O)cc1)c1ccccc1NS(=O)(=O)c1cccs1", "solubility kinetic": "> 60.2 µg/mL"}

input: # get_value(readout='solubility kinetic', item= C=Cn1cc[n+](CC(=O)c2cccs2)c1.[Br-] )
output: > 44.9 µg/mL

input: Next molecule: O=C1N/C(=N\c2ccccn2)SC1Cc1ccccc1Cl (configuration not stated)
output: < 0.2 µg/mL

input: Same question, CC(=O)Nc1ccc(NC(=O)COc2ncnc3ccccc23)cc1 this time
output: > 50.5 µg/mL

input: # repeat for O=c1cc(C(F)(F)F)[nH]c2c(OC(F)(F)F)cccc12
output: > 44.6 µg/mL

input: Again, but for O=C(O)CC(c1cccc(O)c1)N1Cc2ccccc2C1=O (configuration not stated)
output: > 44.6 µg/mL

input: Okay, and S=C(Nc1ccccc1)NC1CCN(Cc2ccccc2)CC1 ?
output: > 48.8 µg/mL

input: Input Cc1cc(N)ccc1NC(=O)CN1CCOCC1
output: > 37.4 µg/mL

input: Try Cc1nn(CC(=O)NC2(C)CCS(=O)(=O)C2)c(C)c1S(=O)(=O)N(C)C (configuration not stated) next.
output: > 58.9 µg/mL

input: Same again, this time with O=C(c1cccs1)N1CCN=C1SCc1ccc(F)cc1
output: < 0.3 µg/mL

----------
Below, each of the compounds is paired with its reported solubility kinetic value.
conditions: buffer; pH 7.4; 200.0 µM

{"compound": "CNC(=S)NNC(=O)c1cccc(N(C)C)c1", "result": "> 37.9 µg/mL"}

input: Look at this compound and give its reported solubility kinetic. CCOc1ccc(C(=S)N2CCCC2)c(OCC)c1
output: > 41.9 µg/mL

input: Thanks! And S=P(N1CC1)(N1CC1)N1CC1 ?
output: > 28.4 µg/mL

input: Please do the same for Cc1nn(C)c(C)c1CNC(=O)Nc1ccc2c(c1)OCO2 as well.
output: > 45.3 µg/mL

input: Item: Cl.O=C1NCC2(CCN(CCc3ccccc3)CC2)O1
output: > 44.5 µg/mL

input: One more compound: COc1ccc(Nc2ccncc2[N+](=O)[O-])cc1
output: > 36.8 µg/mL

input: Item: Cc1cn2c(=O)c(C(=O)N3CCN(c4ccccc4)CC3)cnc2s1
output: > 53.2 µg/mL

input: What do you have for CC(=O)c1cccc(OCC(=O)NC2CCCCCC2)c1 ?
output: > 43.4 µg/mL

input: Same lookup for CCOc1ccc(N2CC(C(=O)NC3CCCC3)CC2=O)cc1 (stereo not drawn) , please.
output: > 47.5 µg/mL

input: Param item: O=[N+]([O-])c1ccc2cn[nH]c2c1
output: > 24.5 µg/mL

input: C=CCN(CC=C)CC(=O)Nc1cccc(Oc2cnccn2)c1 , same question.
output: > 48.7 µg/mL

input: One more compound: CCOC(=O)N1CCC(NS(=O)(=O)c2ccc(C)cc2)CC1
output: > 49 µg/mL

input: Field entry: CCCCOCCCNC(=O)N[C@H](C(=O)OC)C(C)CC (stereo partly drawn)
output: > 45.4 µg/mL

Recorded values, source PubChem BioAssay AID1996.
